Form field: EC50 (one value per entry).
TARGET_ENTITY: T1, human VEGFA165 (human, UniProt P15692-4 27-191)
T1 construct: Bought protein from two suppliers, treated as one molecule; the supplier is named under assay; also called antigen VEGFA
ASSAY_DETAILS: ELISA, coated human VEGFA165, anti-His detection
MEASURED_ENDPOINT: EC50 (nM)

1. 2V1-9GS (VHH, Tandem bivalent nanobody) QLQLVESGGGSVQPGGSLRLSCEVSGRTFSSYTMGWFRQAPGKEREFVVAISKGGYKYDSVSLEARFTISKDNTKNTVYLQMNSLKPEDTAVYYCAATRAYGSSRLRLADTYEYWGQGTQVTVSSGGGGSGGGSQLQLVESGGGSVQPGGSLRLSCEVSGRTFSSYTMGWFRQAPGKEREFVVAISKGGYKYDSVSLEARFTISKDNTKNTVYLQMNSLKPEDTAVYYCAATRAYGSSRLRLADTYEYWGQGTQVTVSS    0.09
2. 2V15-9GS (VHH, Tandem bivalent nanobody) QLQLVESGGGSVQPGGSLRLSCEVSGRTFASYTMGWFRQAPGKEREFVVAISKGGYKYDSVSLEARFTISKDNTKNTVYLQMNSLKPEDTAVYYCAGTRAYGSSRLRLAETYEYWGQGTQVTVSSGGGGSGGGSQLQLVESGGGSVQPGGSLRLSCEVSGRTFASYTMGWFRQAPGKEREFVVAISKGGYKYDSVSLEARFTISKDNTKNTVYLQMNSLKPEDTAVYYCAGTRAYGSSRLRLAETYEYWGQGTQVTVSS    0.24
3. V43 (VHH, Monovalent nanobody; tag not described here, the ELISA detects a His tag) VHH: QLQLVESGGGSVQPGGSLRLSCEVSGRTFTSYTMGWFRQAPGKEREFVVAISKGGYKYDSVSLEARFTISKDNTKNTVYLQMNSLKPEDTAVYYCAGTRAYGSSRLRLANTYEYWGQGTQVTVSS    0.31

Reference for the values: patent US20260234232A1
